# assay-text: Toxicity liver stage against HepG2, at 10uM
# Assay type: cell-based
# Set-up: test concentration 10 uM, cell line HepG2-A16-CD81EGFP
# protocol-conditions: human, HepG2-A16-CD81EGFP cells; read-out: INHIBITION
readout: cytotoxicity at 10 µM (%)
Respond numerically; units are % and should not be typed.

Lab book: cytotoxicity at 10 µM of CCC(CCN)n1ccc(C(F)(F)F)n1 (stereo not drawn) noted as -11.2

Lab book: cytotoxicity at 10 µM of "Cn1cccc(NC(=O)COc2ccc(Cl)cc2)c1=O" noted as 4.69

Lab book: cytotoxicity at 10 µM of "O=C(c1ccncc1F)N1C[C@@H]2OCCN(CC3CC3)[C@@H]2C1" noted as -141

Lab book: cytotoxicity at 10 µM of "Cc1sc2ncnc(N3CCC(N(C)Cc4cnn(C)c4)CC3)c2c1C" noted as -2.98

Lab book: cytotoxicity at 10 µM of Cc1cccc(CN2CCC(NCC3CNc4cc(C)nn4C3)CC2)c1 (stereo not drawn) noted as 7.36

Lab book: cytotoxicity at 10 µM of "CCc1ccc(CN2CC[C@@H]3CN(S(C)(=O)=O)CCO[C@@H]3C2)o1" noted as -0.461

Lab book: cytotoxicity at 10 µM of "CC(=O)N(C)CCCc1cc(-c2ccccc2)no1" noted as -7.16

Lab book: cytotoxicity at 10 µM of O=C1CC(NCc2cccc(O)c2)CN1CCc1cccc(Cl)c1 (stereo not drawn) noted as -130

====

Exercise: state measured cytotoxicity at 10 µM for each of the compounds provided.
# assay-text: Toxicity liver stage against HepG2, at 10uM
# Type: cell-based
# Design: test concentration 10 uM, cell line HepG2-A16-CD81EGFP
# protocol-conditions: human, HepG2-A16-CD81EGFP cells; read-out: INHIBITION
Respond numerically; units are % and should not be typed.

Lab book: cytotoxicity at 10 µM of "CCn1nc2c(cc1=O)CN(Cc1ccc(-n3cccn3)cc1)CC2" noted as -134

Lab book: cytotoxicity at 10 µM of N#Cc1ccccc1OCCN1CCCCC1Cn1cncn1 (stereo unspecified) noted as -6.04

Lab book: cytotoxicity at 10 µM of COc1cc(CCC(=O)NCC2CCCN2C)ccc1OCC(F)(F)F (stereo unspecified) noted as -5.99

Lab book: cytotoxicity at 10 µM of O=S(=O)(NC1CCCCC12OCCO2)c1cc(Cl)cc(Cl)c1 (stereo unspecified) noted as 11.5

Lab book: cytotoxicity at 10 µM of "COc1cccc2c(=O)n(Cc3nc(C)cc(O)n3)cnc12" noted as 9.49

Lab book: cytotoxicity at 10 µM of "Cc1nnc(NCc2ccc(N3CCC(CO)CC3)cc2)c(C#N)c1C" noted as -2.83

Lab book: cytotoxicity at 10 µM of "Cc1ccc(-c2nnc(SCC(=O)O)n2-c2ccccc2)cc1" noted as -4.9

Lab book: cytotoxicity at 10 µM of CC(CNC(=O)c1cc(Cl)ccc1I)N1CCCC1 (stereo unspecified) noted as -5.28

Lab book: cytotoxicity at 10 µM of Cc1nccc(CC2COCCN(c3cnccn3)C2)n1 (stereo unspecified) noted as 0.933

Lab book: cytotoxicity at 10 µM of CC(C)Cc1nc(CN2CCC3(CCCO3)CCC2=O)no1 (stereo unspecified) noted as 1.95

Lab book: cytotoxicity at 10 µM of "Cc1cc(CN2CC[C@H]3C[C@H](c4nc(C5CC5)cs4)O[C@@H]3C2)no1" noted as -97.6

Lab book: cytotoxicity at 10 µM of Cc1nn2c(N3CCCC(C(N)=O)C3)cc(-c3ccccc3)nc2c1C (stereo unspecified) noted as -4.45

Lab book: cytotoxicity at 10 µM of Fc1ccc(-c2nc(CN3CCCCC3Cn3cncn3)co2)cc1 (stereo unspecified) noted as -8.18

Lab book: cytotoxicity at 10 µM of "O=C1CC[C@@H]2[C@@H](CCN2Cc2ccncc2)N1c1ccccc1" noted as -1.88

Lab book: cytotoxicity at 10 µM of "Cc1cc2nc(CO[C@H]3CN(C4CCN(C)CC4)C[C@H]3F)[nH]c2cc1C" noted as -11.6

Lab book: cytotoxicity at 10 µM of "COCCC(=O)N1C[C@@H]2COC[C@]2(COCc2cccnc2)C1" noted as -4.23

Lab book: cytotoxicity at 10 µM of CSCCc1ccc(NC(=O)NC(C)Cn2cncn2)cc1 (stereo unspecified) noted as 2.56

Lab book: cytotoxicity at 10 µM of "Cc1ncc2c(n1)CN(Cc1noc(C3CC3)n1)CC2" noted as -13.4

Lab book: cytotoxicity at 10 µM of "O=C(NC[C@H]1OC[C@@H](NC2CCC(F)(F)CC2)[C@@H]1O)Nc1ccccc1" noted as 4.11

Lab book: cytotoxicity at 10 µM of O=S(=O)(C1CC1)N1CCCC2(COCCN(c3nncs3)C2)C1 (stereo unspecified) noted as 5.22

Lab book: cytotoxicity at 10 µM of "CC(=O)c1ccc(N2CCC(CO)(CCOc3ccccc3)CC2)nc1" noted as 28.1

Lab book: cytotoxicity at 10 µM of "CN1C(=O)C[C@H]2[C@H]1CCN2Cc1cccc(C#N)c1" noted as -75.6

Lab book: cytotoxicity at 10 µM of "COCCn1cc(C(=O)NCCS(N)(=O)=O)c2ccccc21" noted as 7.01

Lab book: cytotoxicity at 10 µM of "COCCCNc1c(-c2ccccc2)c(=O)c1=O" noted as 0.409

Lab book: cytotoxicity at 10 µM of "O=S(=O)(c1ccc(-c2nc3c([nH]2)CCNC3)cc1)N1CCCC1" noted as -2.09

Lab book: cytotoxicity at 10 µM of "O=C(NCCOCC(F)(F)F)c1ccc(-c2ccco2)[nH]c1=O" noted as -8.5
